Target: full-length beta-Catenin (Uniprot ID P35222) (Homo sapiens (Human)) (UniProt P35222)
Sequence (P35222 whole entry, the tested form may be a part): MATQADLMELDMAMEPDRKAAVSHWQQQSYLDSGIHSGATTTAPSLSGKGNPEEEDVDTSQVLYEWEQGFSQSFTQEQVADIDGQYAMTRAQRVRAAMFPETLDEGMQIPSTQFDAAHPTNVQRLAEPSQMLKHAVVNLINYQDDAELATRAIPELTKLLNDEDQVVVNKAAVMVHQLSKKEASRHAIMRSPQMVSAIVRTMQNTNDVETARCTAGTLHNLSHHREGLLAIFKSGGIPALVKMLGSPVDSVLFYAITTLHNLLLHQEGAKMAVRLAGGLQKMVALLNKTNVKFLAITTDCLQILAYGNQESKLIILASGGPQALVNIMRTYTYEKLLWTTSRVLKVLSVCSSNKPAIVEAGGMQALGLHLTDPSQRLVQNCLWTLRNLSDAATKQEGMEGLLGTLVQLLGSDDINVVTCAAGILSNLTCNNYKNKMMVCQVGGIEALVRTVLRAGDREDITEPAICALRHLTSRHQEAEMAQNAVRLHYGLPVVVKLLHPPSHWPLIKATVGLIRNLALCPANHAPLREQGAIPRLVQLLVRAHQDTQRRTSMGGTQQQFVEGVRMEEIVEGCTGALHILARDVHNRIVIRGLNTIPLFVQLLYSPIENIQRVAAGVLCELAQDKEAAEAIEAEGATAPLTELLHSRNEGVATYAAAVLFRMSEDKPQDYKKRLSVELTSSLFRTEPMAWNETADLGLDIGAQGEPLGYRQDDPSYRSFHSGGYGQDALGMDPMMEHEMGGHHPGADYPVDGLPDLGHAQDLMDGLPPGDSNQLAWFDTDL
Assay: fluorescence polarization competition; full-length beta-catenin with 5FAM-labeled TCF4 residues 10-53 probe as competitor
pEC50: −log10 of the molar value. Starred links: 1 amine or outer side, 2 acyl side, 3 side chain; linkers in the order of their positions; H or OH if unused. Positions of bridges follow the written chain, without caps; N, C: chain ends. Non-standard residues stand in square brackets, D forms with d. Primed or numbered codes have the meaning given here. B5(4) = 2,2-bis(4-pentenyl)glycine = 2-amino-2-(pent-4-en-1-yl)hept-6-enoic acid (stitching residue), C=CCCCC(CCCC=C)(N[*:1])C(=O)[*:2]; B5(5) = 2,2-bis(4-pentenyl)glycine, 2-amino-2-(pent-4-en-1-yl)hept-6-enoic acid (stitching residue), C=CCCCC(CCCC=C)(N[*:1])C(=O)[*:2]; B5(3) = 2,2-bis(4-pentenyl)glycine (stitching residue), C=CCCCC(CCCC=C)(N[*:1])C(=O)[*:2]; B5 = 2-amino-2-(pent-4-en-1-yl)hept-6-enoic acid, C=CCCCC(CCCC=C)(N[*:1])C(=O)[*:2]; Bip = N[C@@H](Cc1ccc(-c2ccccc2)cc1)C(=O)O; Bta = N[C@@H](Cc1csc2ccccc12)C(=O)O; αAllylPro = C=CC[C@@]1(C(=O)O)CCCN1; tBuAla = CC(C)(C)C[C@H](N)C(=O)O; 3Thi = N[C@@H](Cc1ccsc1)C(=O)O; Cha = N[C@@H](CC1CCCCC1)C(=O)O; S8 = C=CCCCCCC[C@](C)(N)C(=O)O; Nle = CCCC[C@H](N)C(=O)O; Aib = CC(C)(N)C(=O)O
Each entry below carries its recorded pEC50.
readout.kind: pEC50

binder: Ac-[αAllylPro]DI[B5(4)]DEAA[Nle]Q[S8]F[Bta]Q-NH2 (staple 1-4, 4-11) [I-728]
val: 6.54
--
binder: Ac-[αAllylPro]DI[B5]DEAA[Cha]Q[S8]F[Bta]Q-NH2 (staple 1-4, 4-11) [I-722]
val: 5.95
--
binder: Ac-[αAllylPro]DI[B5(3)]DEAAFN[S8]F[Bta]-NH2 (staple 1-4, 4-11) [I-715]
val: 7.22
--
binder: Ac-[αAllylPro]DL[B5(5)]DEAAFN[S8]F[Bta]H[Aib]-NH2 (staple 1-4, 4-11) [I-743]
val: 7.07
--
binder: Ac-[αAllylPro]DL[B5]DEAAFN[S8][3Thi][Bta]-NH2 (staple 1-4, 4-11) [I-717]
val: 7.41
--
binder: Ac-[αAllylPro]D[tBuAla][B5]DEAAFN[S8][3Thi][Bta]-NH2 (staple 1-4, 4-11) [I-718]
val: 7.09
--
binder: Ac-[αAllylPro]DI[B5]DEAA[Bip]Q[S8]F[Bta]Q-NH2 (staple 1-4, 4-11) [I-723]
val: 5.42
--
binder: Ac-[αAllylPro]DL[B5(5)]DEAAFN[S8]F[Bta]Q[Aib]-NH2 (staple 1-4, 4-11; also: earlier-eluting staple isomer) [I-736]
val: 6.36
--
binder: Ac-[αAllylPro]DI[B5]DEAAFN[S8][3Thi][Bta]-NH2 (staple 1-4, 4-11) [I-721]
val: 7.34
--
binder: Ac-[αAllylPro]D[tBuAla][B5]DEAAFN[S8][3Thi][Bta]-NH2 (staple 1-4, 4-11) [I-719]
val: 7.42

Origin of measurements: patent US20240116985A1
